assayed-system: T1, LTβR-Ig (UniProt P36941 31-227, limits assumed)
T1 construct: extracellular domain; also called LTβR Ig receptor; recombinantly produced LTβR receptor; not shown: human Fc region
T1 sequence (P36941 31-227 limits assumed): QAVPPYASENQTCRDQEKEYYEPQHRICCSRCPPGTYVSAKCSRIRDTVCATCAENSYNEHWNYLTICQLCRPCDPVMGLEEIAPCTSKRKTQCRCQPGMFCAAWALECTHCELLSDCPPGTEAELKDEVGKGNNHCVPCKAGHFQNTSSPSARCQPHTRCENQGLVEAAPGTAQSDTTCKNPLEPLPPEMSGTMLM
measurement-notes: thermal challenge assay; T50 = temperature at which 50% of the molecules keep binding to plate-coated LTβR-Ig (DELFIA); unit taken from the x axis
measure-name: T50 (°C)

>  <binder>
BHA10 VH44:VL100/(Gly4Ser)4 scFv (scFv, Cys at Kabat VH44 and VL100 form a disulfide; also called Wild-type, (G4S)*4 linker w/ VH44/VL100 disulfide; 009 (ss)) scFv: QVQLVQSGAEVKKPGSSVKVSCKASGYTFTTYYLHWVRQAPGQCLEWMGWIYPGNVHAQYNEKFKGRVTITADKSTSTAYMELSSLRSEDTAVYYCARSWEGFPYWGQGTTVTVSSGGGGSGGGGSGGGGSGGGGSDIQMTQSPSSLSASVGDRVTITCKASQNVGINVAWYQQKPGKAPKSLISSASYRYSGVPSRFSGSGSGTDFTLTISSLQPEDFATYFCQQYDTYPFTFGCGTKVEIK

>  <value-reported>
62

$$$$
